Where do the numbers come from? From PubChem BioAssay AID2060327.

viability, T/C by entry:
Test system: PC-3 multi-cell spheroids, viability
Assay: Anticancer human tumor PC-3 cell line growth inhibition [IpAb];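 further: spheroids exposed to compounds for 7 days before readout; 100% = DMSO vehicle control wells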
Details: second compound 0.1 µM; first compound 3.16 µM; stronger effect = lower value

Molecule	viability, T/C [%]
C=CC(=O)N1CCN(c2nc(=O)n(-c3c(C)ccnc3C(C)C)c3nc(-c4c(O)cccc4F)c(F)cc23)C(C)C1 (stereo not given) + CCN1CCN(Cc2ccc(Nc3ncc(F)c(-c4cc(F)c5nc(C)n(C(C)C)c5c4)n3)nc2)CC1	64.2
CCCS(=O)(=O)Nc1ccc(F)c(C(=O)c2c[nH]c3ncc(-c4ccc(Cl)cc4)cc23)c1F + CC(C)NCC(C(=O)N1CCN(c2ncnc3c2C(C)CC3O)CC1)c1ccc(Cl)cc1	83.8
C=CCn1c(=O)c2cnc(Nc3ccc(N4CCN(C)CC4)cc3)nc2n1-c1cccc(C(C)(C)O)n1 + CCN1CCN(Cc2ccc(Nc3ncc(F)c(-c4cc(F)c5nc(C)n(C(C)C)c5c4)n3)nc2)CC1	24
C=CC(=O)N1CCN(c2nc(=O)n(-c3c(C)ccnc3C(C)C)c3nc(-c4c(O)cccc4F)c(F)cc23)C(C)C1 (stereo not given) + CC(C)NCC(C(=O)N1CCN(c2ncnc3c2C(C)CC3O)CC1)c1ccc(Cl)cc1	99.1
Cn1nccc1Nc1nccc(-c2ccn(C(CO)c3ccc(Cl)c(F)c3)c(=O)c2)n1 (stereo not given) + CC(C)NCC(C(=O)N1CCN(c2ncnc3c2C(C)CC3O)CC1)c1ccc(Cl)cc1	127
Cc1nc(NC(=O)N2CCCC2C(N)=O)sc1-c1ccnc(C(C)(C)C(F)(F)F)c1 (stereo not given) + CC(C)NCC(C(=O)N1CCN(c2ncnc3c2C(C)CC3O)CC1)c1ccc(Cl)cc1	41.8
Cn1ncc(Cl)c1-c1cc(C(=O)NC(CN)Cc2cccc(F)c2)sc1Cl (stereo not given) + CC(C)NCC(C(=O)N1CCN(c2ncnc3c2C(C)CC3O)CC1)c1ccc(Cl)cc1	16.9
CC1(C)CCC(CN2CCN(c3ccc(C(=O)NS(=O)(=O)c4ccc(NCC5CCOCC5)c([N+](=O)[O-])c4)c(Oc4cnc5[nH]ccc5c4)c3)CC2)=C(c2ccc(Cl)cc2)C1 + CCN1CCN(Cc2ccc(Nc3ncc(F)c(-c4cc(F)c5nc(C)n(C(C)C)c5c4)n3)nc2)CC1	70.1
CCCS(=O)(=O)Nc1ccc(F)c(C(=O)c2c[nH]c3ncc(-c4ccc(Cl)cc4)cc23)c1F + CCN1CCN(Cc2ccc(Nc3ncc(F)c(-c4cc(F)c5nc(C)n(C(C)C)c5c4)n3)nc2)CC1	61.9
Cn1ncc(Cl)c1-c1cc(C(=O)NC(CN)Cc2cccc(F)c2)sc1Cl (stereo not given) + CCN1CCN(Cc2ccc(Nc3ncc(F)c(-c4cc(F)c5nc(C)n(C(C)C)c5c4)n3)nc2)CC1	9.97

###

Tested on: PC-3 multi-cell spheroids, viability
Experiment: Anticancer human tumor PC-3 cell line growth inhibition [IpAb]; active = viability on the fitted dose curve at most 10% of control; inactive = the rest;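 further: spheroids exposed to compounds for 7 days before readout; 100% = DMSO vehicle control wells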
Conditions: second compound 0.316 µM; first compound 0.0316 µM
Classes used: TRUE for active, FALSE for inactive

Compound	Category
C=CC(=O)N1CCN(c2nc(=O)n(-c3c(C)ccnc3C(C)C)c3nc(-c4c(O)cccc4F)c(F)cc23)C(C)C1 (stereo not given) + CC(C)NCC(C(=O)N1CCN(c2ncnc3c2C(C)CC3O)CC1)c1ccc(Cl)cc1	FALSE
CC1(C)CCC(CN2CCN(c3ccc(C(=O)NS(=O)(=O)c4ccc(NCC5CCOCC5)c([N+](=O)[O-])c4)c(Oc4cnc5[nH]ccc5c4)c3)CC2)=C(c2ccc(Cl)cc2)C1 + CCN1CCN(Cc2ccc(Nc3ncc(F)c(-c4cc(F)c5nc(C)n(C(C)C)c5c4)n3)nc2)CC1	FALSE
Cn1ncc(Cl)c1-c1cc(C(=O)NC(CN)Cc2cccc(F)c2)sc1Cl (stereo not given) + CC(C)NCC(C(=O)N1CCN(c2ncnc3c2C(C)CC3O)CC1)c1ccc(Cl)cc1	FALSE
CC(C)n1nc(-c2ccc3oc(N)nc3c2)c2c(N)ncnc21 + CC(C)NCC(C(=O)N1CCN(c2ncnc3c2C(C)CC3O)CC1)c1ccc(Cl)cc1	TRUE
CCCS(=O)(=O)Nc1ccc(F)c(C(=O)c2c[nH]c3ncc(-c4ccc(Cl)cc4)cc23)c1F + CC(C)NCC(C(=O)N1CCN(c2ncnc3c2C(C)CC3O)CC1)c1ccc(Cl)cc1	FALSE
COc1c(OCCCN2CCOCC2)ccc2c3n(c(=NC(=O)c4cnc(N)nc4)nc12)CCN3 + CC(C)NCC(C(=O)N1CCN(c2ncnc3c2C(C)CC3O)CC1)c1ccc(Cl)cc1	FALSE
Cc1nc(NC(=O)N2CCCC2C(N)=O)sc1-c1ccnc(C(C)(C)C(F)(F)F)c1 (stereo not given) + CC(C)NCC(C(=O)N1CCN(c2ncnc3c2C(C)CC3O)CC1)c1ccc(Cl)cc1	FALSE
CC(C)n1nc(-c2ccc3oc(N)nc3c2)c2c(N)ncnc21 + CCN1CCN(Cc2ccc(Nc3ncc(F)c(-c4cc(F)c5nc(C)n(C(C)C)c5c4)n3)nc2)CC1	FALSE
Cn1ncnc1[C@H]1c2n[nH]c(=O)c3cc(F)cc(c23)N[C@@H]1c1ccc(F)cc1 + CCN1CCN(Cc2ccc(Nc3ncc(F)c(-c4cc(F)c5nc(C)n(C(C)C)c5c4)n3)nc2)CC1	FALSE
CC1(C)CCC(CN2CCN(c3ccc(C(=O)NS(=O)(=O)c4ccc(NCC5CCOCC5)c([N+](=O)[O-])c4)c(Oc4cnc5[nH]ccc5c4)c3)CC2)=C(c2ccc(Cl)cc2)C1 + CC(C)NCC(C(=O)N1CCN(c2ncnc3c2C(C)CC3O)CC1)c1ccc(Cl)cc1	FALSE
